- tested_on: 5-lipoxygenase (Homo sapiens, UniProt P09917)
- Construct: Human polymorphonuclear leukocytes (neutrophils) were obtained from normal healthy volunteers; endogenous in cells; host or cells: human blood neutrophils from healthy volunteers
- Sequence (P09917 whole entry): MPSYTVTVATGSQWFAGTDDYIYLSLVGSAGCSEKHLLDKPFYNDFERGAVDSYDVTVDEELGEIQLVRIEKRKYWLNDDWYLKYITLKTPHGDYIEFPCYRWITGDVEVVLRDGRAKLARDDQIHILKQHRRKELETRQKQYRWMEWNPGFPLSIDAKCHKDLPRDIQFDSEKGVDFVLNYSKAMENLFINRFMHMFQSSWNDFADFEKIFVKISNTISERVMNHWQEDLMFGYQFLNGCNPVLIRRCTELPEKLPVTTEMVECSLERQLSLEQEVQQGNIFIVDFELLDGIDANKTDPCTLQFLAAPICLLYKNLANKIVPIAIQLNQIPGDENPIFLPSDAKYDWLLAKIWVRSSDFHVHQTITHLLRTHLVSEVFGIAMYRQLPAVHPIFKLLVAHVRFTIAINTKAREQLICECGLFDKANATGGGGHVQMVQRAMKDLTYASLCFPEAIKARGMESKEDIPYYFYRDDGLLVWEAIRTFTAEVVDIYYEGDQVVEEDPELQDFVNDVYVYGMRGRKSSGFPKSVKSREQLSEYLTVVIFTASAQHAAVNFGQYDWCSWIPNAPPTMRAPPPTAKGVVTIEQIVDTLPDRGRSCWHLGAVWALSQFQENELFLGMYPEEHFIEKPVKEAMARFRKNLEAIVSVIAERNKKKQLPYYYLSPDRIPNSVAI
- method: 5-Lipoxygenase assay with human neutrophils
- Format: cell-based
- test_context: 5 min; Human PMN, dose 15 μm (μM); read-out: % Inhibition 5-HETE
- Experimental: Human polymorphonuclear leukocytes (neutrophils) were obtained from normal healthy volunteers by venipuncture and collected with heparin anticoagulant. Neutrophils were isolated by Dextran/Ficol sedimentation as described (Billah et al., J. Biol. Chem. 260, 6899-6906 (1985)). In brief, 30 ml of blood was mixed with 5 ml of dextran (Sigma) solution and kept at 37° C. for 30 min. […]
measured_quantity: inhibition at 15 µM (%)
One number for each entry, in %.

// below: answered molecules
inhibition at 15 µM lookup needed for CC1(C)c2cc(O)cc(O)c2C(=O)CC1c1cccc(O)c1 (stereo not drawn) , thanks.
23

How about this molecule: COc1ccc(C2CC(=O)c3c(OC)cccc3C2(C)C)cc1OC (stereo not drawn)
23

How about this molecule: CC1=C(c2ccc(O)c(O)c2)C(C)(C)c2cc(O)cc(O)c2C1=O
90

How about this molecule: COc1ccc(CC2CC(C)(C)c3cc(OC)cc(OC)c3C2=O)cc1 (stereo not drawn) [drawing 102 [A=drawing 103; B=H]]
86

Each molecule below has a recorded value; state its inhibition at 15 µM.
1. COc1cc(OC)c2c(c1)C(C)(C)C(c1ccc(OC)c(OC)c1)CCN2 (stereo not drawn) [drawing 89 [X=NH; R3/R4=H,H; P=OCH3]]
2. COc1ccc2c(c1)C(C)(C)C(c1ccc(OC)c(OC)c1)CC2=O (stereo not drawn)

39
42

Each molecule below has a recorded value; state its inhibition at 15 µM.
1. CC1(C)c2cc(O)cc(O)c2C(=NO)CC1c1cc(O)cc(O)c1 (stereo not drawn)
2. COc1cc(OC)c2c(c1)C(C)(C)C(c1ccc(OC)c(OC)c1)CC2=NOC(=O)C(C)(C)C (stereo not drawn)
3. COc1cc(OC)c2c(c1)C(C)(C)C(c1ccc(OC)c(OC)c1)CC2Sc1ccc(Cl)cc1 (stereo not drawn)

57
0
36

---

Exercise: for every item that follows, state its recorded inhibition at 15 µM.
- tested_on: 5-lipoxygenase (Homo sapiens, UniProt P09917)
- Construct: Human polymorphonuclear leukocytes (neutrophils) were obtained from normal healthy volunteers; endogenous in cells; host or cells: human blood neutrophils from healthy volunteers
- method: 5-Lipoxygenase assay with human neutrophils
- Type: cell-based
- test_context: 5 min; Human PMN, dose 15 μm (μM); read-out: % Inhibition 5-HETE
Numbers only, in %.

inhibition at 15 µM lookup needed for COc1cc(OC)c2c(c1)C(C)(C)C(c1ccc(OC)c(OC)c1)CC(C)C2=O (centres unmarked) [drawing 90 [X=O; W=H; J=CH3]] , thanks.
28

How about this compound: COc1cc(OC)c2c(c1)C(C)(C)C(c1ccc(OC)c(OC)c1)CC2=NNC(=O)c1ccccc1 (centres unmarked)
22

How about this compound: COc1cc(OC)c2c(c1)C(C)(C)C(c1ccc(OC)c(OC)c1)CC(=O)O2 (centres unmarked) [drawing 89 [X=O; R3/R4=O; P=OCH3]]
9

How about this compound: COc1cc(OC)c2c(c1)C(C)(C)C(c1ccc(OC)c(OC)c1)CC2=NNC(N)=O (centres unmarked)
2

How about this compound: COc1cc(OC)c2c(c1)C(C)(C)C(c1ccc(OC)c(OC)c1)C=CC2=O (centres unmarked)
48

How about this compound: COc1cc(OC)c2c(c1)C(C)(C)C(c1ccc(OC)c(OC)c1)CCO2 (centres unmarked) [drawing 106 [X=O; R3/R4=H,H; J=H; L,P=OCH3]]
39

How about this compound: COc1ccc2c(c1)C(C)(C)C(c1ccc(OC)c(OC)c1)=CC2=O
79

More entries:
inhibition at 15 µM lookup needed for COc1cc(OC)c2c(c1)C(C)(C)C(c1ccc(OC)c(OC)c1)C(C=O)C2=O (centres unmarked) , thanks.
16
